Each recorded value in this set is attributed to patent US20190382488A1.

List of kon values.
testedSystem: T1, recombinant human CD8 (rhCD8) (human, UniProt P01732 22-182)
T1 construct: Soluble purified recombinant protein; also called purified recombinant human CD8 protein; soluble CD8
T1 sequence (P01732 22-182 limits assumed): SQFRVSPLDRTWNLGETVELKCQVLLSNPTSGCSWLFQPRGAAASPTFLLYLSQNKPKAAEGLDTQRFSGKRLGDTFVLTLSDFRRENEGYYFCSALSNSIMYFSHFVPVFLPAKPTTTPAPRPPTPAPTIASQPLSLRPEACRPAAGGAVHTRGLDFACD
assayMethodText: SPR (BIAcore), minibody captured via anti-human IgG Fc, hCD8 analyte at 50 nM
Number first, unit second: that is the form wanted.

For orientation, consider the following solved cases.
{"binder": "IAb_Mb1b_CD8 (other, also called IAb M1b CD8) DVQITQSPSSLSASVGDRVTITCRTSRSISQYLAWYQQKPGKVPKLLIYSGSTLQSGVPSRFSGSGSGTDFTLTISSLQPEDVATYYCQQHNENPLTFGGGTKVEIKGSTSGGGSGGGSGGGGSSEVQLVESGGGLVQPGGSLRLSCAASGFNIKDTYIHFVRQAPGKGLEWIGRIDPANDNTLYASKFQGKATISADTSKNTAYLQMNSLRAEDTAVYYCGRGYGYYVFDHWGQGTLVTVSSEPKSCDKTHTCPPCGGGSSGGGSGGQPREPQVYTLPPSRDELTKNQVSLTCLVKGFYPSDIAVEWESNGQPENNYKTTPPVLDSDGSFFLYSKLTVDKSRWQQGNVFSCSVMHEALHNHYTQKSLSLSPGK", "measured": "640000 M⁻¹ s⁻¹"}
{"binder": "IAb_Mb1a_CD8 (other, also called variant 1a) DVQITQSPSSLSASVGDRVTITCRTSRSISQYLAWYQQKPGKVPKLLIYSGSTLQSGVPSRFSGSGSGTDFTLTISSLQPEDVATYYCQQHNENPLTFGGGTKVEIKGSTSGGGSGGGSGGGGSSEVQLVESGGGLVQPGGSLRLSCAASGFNIKDTYIHFVRQAPGKGLEWIGRIDPANDNTLYASKFQGKATISADTSKNTAYLQMNSLRAGDTAVYYCGRGYGYYVFDHWGQGTLVTVSSEPKSCDKTHTCPPCGGGSSGGGSGGQPREPQVYTLPPSRDELTKNQVSLTCLVKGFYPSDIAVEWESNGQPENNYKTTPPVLDSDGSFFLYSKLTVDKSRWQQGNVFSCSVMHEALHNHYTQKSLSLSPGK", "measured": "650000 M⁻¹ s⁻¹"}

Now for the binder whose kon we want.
Q) Would you mind telling me what kon value was observed for IAb_Mb2d_CD8 (other, also called variant 2d) QVQLVQSGAEVKKPGATVKISCKVSGFNIKDTYIHFVQQAPGKGLEWIGRIDPANDNTLYASKFQGKATITADTSTDTAYMELSSLRSEDTAVYYCGRGYGYYVFDHWGQGTLVTVSGSTSGGGSGGGSGGGGSSDVQITQSPSSLSASVGDRVTITCRTSRSISQYLAWYQQKPGKVPKLLIYSGSTLQSGVPSRFSGSGSGTDFTLTISSLQPEDVATYYCQQHNENPLTFGGGTKVEIKEPKSCDKTHTCPPCGGGSSGGGSGGQPREPQVYTLPPSRDELTKNQVSLTCLVKGFYPSDIAVEWESNGQPENNYKTTPPVLDSDGSFFLYSKLTVDKSRWQQGNVFSCSVMHEALHNHYTQKSLSLSPGK ?
A) 540000 M⁻¹ s⁻¹
